Below, each entry is listed alongside its reported pIC50.
tested on: Vero; test: Compound was evaluated for its cytotoxicity against vero cells.; assay type: functional, cell-based; settings: Chlorocebus sabaeus
pIC50: −log10 of the molar value.

>  <MOLECULE>
Nc1ncnc2c1ncn2C1C=CC(CO)C1 (configuration not stated)

>  <pIC50>
< 4.00

$$$$
>  <MOLECULE>
OCC1C=CC(n2cnc3c(S)ncnc32)C1 (configuration not stated)

>  <pIC50>
< 4.00

$$$$

###

system: CCRF-CEM; experiment: Compound was evaluated for its cytotoxicity expressed as IC50 against CEM cells.; type: functional, cell-based; conditions: Homo sapiens
OBSERVED PROPERTY: IC50

>  <COMPOUND>
Nc1ncnc2c1ncn2C1C=CC(CO)C1 (stereo unspecified)

>  <OBSERVED VALUE>
> 100 µM

$$$$
